system: SK-MEL-28 melanoma; experiment: NCI tumour cell line growth inhibition, 48 h
Measured property: TGI (µM)
The answer is to be given in µM; state only the numeric part.

In [3]: df
Out[3]:
                                   compound  value_observed
0  COc1ccc(/C=C/C(=O)/C=C/c2cc3ccccc3[nH]c2=O)cc1            34.7
1  CCCCCCCCCCCCCCCCCC1=NC(C)(C)CN1CC(C)O (stereo not given)            33.5
2  CCC(O)c1ccc(Br)cc1NC(=O)c1cccc(Cl)c1 (stereo not given)            64.8

Field: next compound
Query (compound): CC1=C[C@H]2c3c([nH]c4ccccc34)C(c3c[nH]c4ccccc34)[C@H]2CC1 (stereo not given in full) ; field requested: TGI 26

The measured values listed here are drawn from PubChem BioAssay (NCI).
